Tested on: UO-31 renal
Experiment: NCI tumour cell line growth inhibition, 48 h
readoutLabel: TGI

State the recorded TGI for this entry: Cc1cccc2c(N)c3cccc(C(=O)NCC[N+](C)(C)Cc4ccc(S(C)(=O)=O)cc4)c3nc12
> 100 µM

Given the molecule O=S(=O)(O)c1ccc(Nc2ccnc3ccccc23)cc1 , what is its reported TGI?
> 100 µM

Quick one: TGI of COC(=O)C1CC(c2ccc(Cl)cc2)=NO1 (stereo unspecified) ?
> 100 µM

Using the record for CC1=NNC(=O)C1C1CC(c2c[nH]c3ccccc23)=NN(c2ccccc2)C1=O (stereo unspecified) , report its TGI.
> 100 µM

Can you share its TGI? I mean this molecule: COc1ccc(Cc2cc(OC)c(OC)c(OC)c2)cc1
90.5 µM

Value lookup for TGI; key = Fc1cc(C2=Nn3c(CNc4ccc(Cl)cc4)nnc3S/C2=C\c2ccc(-c3ccc(Cl)cc3)o2)c(Cl)cc1Cl
> 100 µM
